Source of measurements: patent US20220348590A1

Some molecules, each annotated with its measured COX2 2 minutes pge2 area (counts) Avg. LLE.
Molecular target: human recombinant COX2 (hCOX2)
Sequence (P35354 1-604): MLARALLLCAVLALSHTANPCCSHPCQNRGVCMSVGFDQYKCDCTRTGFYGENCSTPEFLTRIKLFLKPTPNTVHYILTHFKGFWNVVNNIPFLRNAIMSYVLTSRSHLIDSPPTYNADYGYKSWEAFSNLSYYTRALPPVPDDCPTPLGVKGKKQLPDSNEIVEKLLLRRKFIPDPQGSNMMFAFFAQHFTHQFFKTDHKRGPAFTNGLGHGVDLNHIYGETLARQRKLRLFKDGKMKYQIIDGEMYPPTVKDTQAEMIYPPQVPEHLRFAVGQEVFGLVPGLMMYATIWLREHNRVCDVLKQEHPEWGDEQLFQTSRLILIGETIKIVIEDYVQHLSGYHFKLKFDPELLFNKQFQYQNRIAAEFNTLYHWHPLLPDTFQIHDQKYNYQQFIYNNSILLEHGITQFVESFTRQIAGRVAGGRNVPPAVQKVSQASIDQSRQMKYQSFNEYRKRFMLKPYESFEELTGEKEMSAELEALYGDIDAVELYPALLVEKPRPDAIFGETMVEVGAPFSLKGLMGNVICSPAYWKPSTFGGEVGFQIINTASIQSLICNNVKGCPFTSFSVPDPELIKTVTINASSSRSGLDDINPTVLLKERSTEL
Assay: LCMS-based COX2 enzymatic inhibition assay (PGE2 quantification)
Type: biochemical
Parameters: COX2 2 minutes pge2/pge2d4 area ratio Avg; other: 2 minutes; readout pge2/pge2d4 area ratio; average; COX2 2 minutes pge2/pge2d4 area ratio Avg; LLE; average LLE; COX2 2 minutes pge2 area (counts) Avg; readout pge2 area (counts); other: 2 min; "ovine COX2 (oCOX2), human recombinant COX2 (hCOX2)"
Details: 2 minutes; readout pge2 area (counts); average LLE

A selection of reference data follows.
- COMPOUND_SMILES: "CC(C)COc1cncc(-c2ccc(S(C)(=O)=O)cc2)n1"
  RESULT: 3.394
- COMPOUND_SMILES: "CS(=O)(=O)c1ccc(-c2cc(F)cc(NCc3ccco3)n2)cc1"
  RESULT: 5.203

Tell me the measured COX2 2 minutes pge2 area (counts) Avg. LLE of `CS(=O)(=O)c1ccc(-c2cncc(SCc3ccccn3)n2)cc1` , please. 5.129

Tell me the measured COX2 2 minutes pge2 area (counts) Avg. LLE of `CS(=O)(=O)c1ccc(-c2cccc(OCc3ccco3)n2)cc1` , please. 4.78

Tell me the measured COX2 2 minutes pge2 area (counts) Avg. LLE of `Cc1ccsc1CNc1cccc(-c2ccc(S(C)(=O)=O)cc2)n1` , please. 4.509
